FYI, the data here is from paper PMC6523162.

assayRemarks: PAMPA gut passive permeability
Type: in vitro ADME
particulars: pH 5.0, 6.2 and 7.4
recordedEndpoint: PAMPA gut permeability (in words)

>>> testvalue("CNC(=C[N+](=O)[O-])NCCSCc1ccc(CN(C)C)o1 [Ranitidine, ranitidine, reference compound]")
"low"

====

assayRemarks: PAMPA BBB passive permeability
Type: in vitro ADME
particulars: pH 7.4
recordedEndpoint: PAMPA BBB permeability (in words)

>>> testvalue("OC[C@H](Cc1cccc(O)c1)[C@H](CO)Cc1cccc(O)c1 [ED, enterodiol]")
"low permeability"
>>> testvalue("Oc1ccc([C@H]2COc3cc(O)ccc3C2)cc1 [EQ, equol]")
"high permeability"
>>> testvalue("COc1cc(C[C@@H](CO)[C@H](CO)Cc2ccc(O)c(OC)c2)ccc1O [SECO, secoisolariciresinol]")
"low permeability"
>>> testvalue("O=C1OC[C@H](Cc2cccc(O)c2)[C@H]1Cc1cccc(O)c1 [EL, enterolactone]")
"high permeability"
